# measured.on: Human PDGFRα, cytoplasmic domain (GST-PDGFRα) (Homo sapiens)
# test.name: Human PDGFRα biochemical inhibition assay (off-chip Mobility Shift Assay)
pIC50: −log10 of the molar value.
measurement.kind: pIC50

See these solved cases before continuing.
- compound: "Cc1n[nH]c2ncc(N[C@@H](C)c3cccc(NC(=O)c4cnc(C(F)(F)F)s4)c3)nc12 [Compound 540]"
  measured.on: "Human PDGFRα, cytoplasmic domain (GST-PDGFRα) (Homo sapiens)"
  pIC50: "> 6.52"
- compound: "CCn1cc2ncc(N[C@@H](C)c3cc(NC(=O)Cc4ccc(C(C)(C)O)cn4)ccc3C)nc2n1 [Compound 705]"
  measured.on: "Human PDGFRα, cytoplasmic domain (GST-PDGFRα) (Homo sapiens)"
  pIC50: "≤ 6.00"
- compound: "CCn1cc2ncc(N[C@@H](C)c3cccc(NC(=O)c4ccc(CN5CCCC6(COC6)C5)c(C)c4)c3)nc2n1 [Compound 481]"
  measured.on: "Human PDGFRα, cytoplasmic domain (GST-PDGFRα) (Homo sapiens)"
  pIC50: "> 6.52"
- compound: "CCn1cc2ncc(N[C@@H](C)c3cc(NC(=O)Cc4cc(CN5CCCC5)c(C)cn4)ccc3C)nc2n1 [Compound 727]"
  measured.on: "Human PDGFRα, cytoplasmic domain (GST-PDGFRα) (Homo sapiens)"
  pIC50: "≤ 6.00"
- compound: "CCn1cc2ncc(N[C@@H](C)c3cccc(NC(=O)c4cnc(N5CCCC5)s4)c3)nc2n1 [Compound 326]"
  measured.on: "Human PDGFRα, cytoplasmic domain (GST-PDGFRα) (Homo sapiens)"
  pIC50: "> 6.52"

Batch request: pIC50 for each of the following compounds.
1. CCn1cc2ncc(N[C@@H](C)c3cc(NC(=O)Cc4cncc(F)c4)ccc3C)nc2n1 [Compound 659]
2. CCn1cc2ncc(N[C@@H](C)c3cccc(NC(=O)Cc4ccc(Cl)c(F)c4)c3)nc2n1 [Compound 627]
3. C[C@H](Nc1cnc2[nH]cc(-c3cnn(C)c3)c2n1)c1cccc(NC(=O)c2cnc(C(F)(F)F)s2)c1 [Compound 582]
4. CCn1cc2ncc(N[C@@H](C)c3cccc(NC(=O)Cc4cccc(F)c4F)c3)nc2n1 [Compound 454]
5. CC[C@H](Nc1cnc2cn(CC)nc2n1)c1cccc(NC(=O)c2cncc(C)c2)c1 [Compound 408]

Solution:
1: > 6.52; 2: > 6.52; 3: 6.00 to 6.52; 4: > 6.52; 5: 6.00 to 6.52

Batch request: pIC50 for each of the following compounds.
1. CCn1cc2ncc(N[C@@H](C)c3cccc(NC(=O)Cc4ccc(F)c(F)c4)c3)nc2n1 [Compound 648]
2. COc1ccc(C(=O)Nc2cccc([C@H](C)Nc3cnc4cnn(C)c4n3)c2)cc1OC [Compound 203]

Solution:
> 6.52
> 6.52

Batch request: pIC50 for each of the following compounds.
1. CCn1cc2ncc(N[C@@H](C)c3cccc(NC(=O)Cc4cc(F)cc(CN5CCN(C)CC5)c4)c3)nc2n1 [Compound 646]
2. CCn1cc2ncc(N[C@@H](C)c3cc(NC(=O)Cc4ccc(Cl)c(C)n4)ccc3F)nc2n1 [Compound 668]
3. Cc1cncc(C(=O)Nc2cccc([C@H](C)Nc3cnc4[nH]cc(-c5cncnc5)c4n3)c2)c1 [Compound 593]
4. Cc1cncc(C(=O)Nc2cccc([C@H](C)Nc3cnc4cc(F)c(F)cc4n3)c2)c1 [Compound 36]
5. Cc1cncc(C(=O)Nc2cccc([C@H](C)Nc3cnc4ccc(C5CC5)cc4n3)c2)c1 [Compound 41]
6. C[C@H](Nc1cnc2cnn(C)c2n1)c1cccc(NC(=O)c2ccc(C#N)nc2)c1 [Compound 117]
7. CCn1cc2ncc(N[C@@H](C)c3cc(NC(=O)Cc4cnc(C5CC5)c(F)c4)ccc3F)nc2n1 [Compound 691]

Solution:
["> 6.52", "> 6.52", "> 6.52", "> 6.52", "> 6.52", "> 6.52", "> 6.52"]

Batch request: pIC50 for each of the following compounds.
1. Cc1n[nH]c2ncc(N[C@@H](C)c3cccc(NC(=O)c4cnn(CCF)c4)c3)nc12 [Compound 544]
2. Cc1cncc(C(=O)Nc2cccc([C@H](C)Nc3cnc4ccccc4c3)c2)c1 [Compound 2]
3. Cc1cncc(C(=O)Nc2cccc([C@H](C)Nc3cnc4cn(CC(C)C)nc4n3)c2)c1 [Compound 276]
4. Cc1cncc(C(=O)Nc2cccc([C@H](C)Nc3cnc4[nH]c(-c5cnn(C)c5)nc4n3)c2)c1 [Compound 603]
5. CCn1cc2ncc(N[C@@H](C)c3cccc(NC(=O)Cc4ccc(OC)cn4)c3)nc2n1 [Compound 697]
6. CCn1cc2ncc(N[C@@H](C)c3cccc(NC(=O)c4ccc(CN5[C@@H]6CC[C@H]5CN(C)C6)c(C)c4)c3)nc2n1 [Compound 475]
7. CCn1cc2ncc(N[C@@H](C)c3cccc(NC(=O)c4ccc(CN5CCN(C)CC5)c(C(F)(F)F)c4)c3)nc2n1 [Compound 423]

Solution:
> 6.52
> 6.52
6.00 to 6.52
> 6.52
6.00 to 6.52
> 6.52
> 6.52

Batch request: pIC50 for each of the following compounds.
1. C[C@H](Nc1cnc2cn[nH]c2n1)c1cccc(NC(=O)c2cncc(C3CCC3)c2)c1 [Compound 96]
2. CCn1cc2ncc(N[C@@H](C)c3cc(NC(=O)c4ccc(CN5CCN(C)CC5)c(C)c4)ccc3F)nc2n1 [Compound 457]
3. Cc1c[nH]c2ncc(N[C@@H](C)c3cccc(NC(=O)c4cnc(C(F)(F)F)s4)c3)nc12 [Compound 572]

Solution:
1. > 6.52
2. > 6.52
3. ≤ 6.00

Problem: Determine its reported pIC50: Cc1cncc(C(=O)Nc2cccc(CNc3cnc4ccccc4n3)c2)c1 [Compound 31]
Solution: > 6.52

###

# measured.on: Human PDGFRα, cytoplasmic domain (GST-PDGFRα) (Homo sapiens)
# test.name: Human PDGFRα biochemical inhibition assay (off-chip Mobility Shift Assay)
pIC50: −log10 of the molar value.
measurement.kind: pIC50

See these solved cases before continuing.
- compound: "Cc1cncc(C(=O)Nc2cccc([C@H](C)Nc3cnc4ccn(-c5cnn(C)c5)c4n3)c2)c1 [Compound 86]"
  pIC50: "> 6.52"
- compound: "CCn1cc2ncc(N[C@@H](C)c3cccc(NC(=O)Nc4cnn(C(C)C)c4)c3)nc2n1 [Compound 733]"
  pIC50: "> 6.52"
- compound: "CCc1ccc(NC(=O)c2ccc(C(F)(F)F)nc2)cc1[C@H](C)Nc1cnc2cn(CC)nc2n1 [Compound 516]"
  pIC50: "≤ 6.00"
- compound: "Cc1cc(C(=O)Nc2cccc([C@H](C)Nc3cnc4cnn(C)c4n3)c2)ccc1CN1CCOCC1 [Compound 209]"
  pIC50: "> 6.52"
- compound: "CCn1cc2ncc(N[C@@H](C)c3cc(NC(=O)c4cnc(NC5CC5)c(C)c4)ccc3C)nc2n1 [Compound 515]"
  pIC50: "> 6.52"

Batch request: pIC50 for each of the following compounds.
1. Cc1cncc(C(=O)Nc2cccc([C@H](C)Nc3cnc4[nH]nc(C)c4c3)c2)c1 [Compound 14]
2. CCn1cc2ncc(N[C@@H](C)c3cccc(NC(=O)c4ccc(CN5CCOCC5)c(C)c4)c3)nc2n1 [Compound 403]

Solution:
1: > 6.52; 2: > 6.52

###

# measured.on: Human PDGFRα, cytoplasmic domain (GST-PDGFRα) (Homo sapiens, UniProt P16234)
# Sequence (P16234 550-1089 T674I): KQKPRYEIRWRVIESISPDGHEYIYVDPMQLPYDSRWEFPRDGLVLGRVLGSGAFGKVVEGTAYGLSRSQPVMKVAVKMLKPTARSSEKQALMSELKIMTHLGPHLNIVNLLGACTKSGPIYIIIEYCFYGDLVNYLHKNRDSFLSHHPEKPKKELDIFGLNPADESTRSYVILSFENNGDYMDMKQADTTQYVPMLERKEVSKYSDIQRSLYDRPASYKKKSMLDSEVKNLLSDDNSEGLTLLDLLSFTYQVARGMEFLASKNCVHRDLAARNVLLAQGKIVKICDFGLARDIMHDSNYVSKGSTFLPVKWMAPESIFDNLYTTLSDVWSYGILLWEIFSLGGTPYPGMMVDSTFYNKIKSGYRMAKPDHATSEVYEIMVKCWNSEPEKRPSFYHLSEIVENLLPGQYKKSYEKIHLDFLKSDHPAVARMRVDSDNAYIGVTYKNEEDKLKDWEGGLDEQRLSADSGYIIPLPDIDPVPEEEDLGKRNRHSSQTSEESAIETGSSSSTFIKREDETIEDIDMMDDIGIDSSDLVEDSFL
# test.name: Human PDGFRα biochemical inhibition assay (off-chip Mobility Shift Assay)
measurement.kind: IC50

Batch request: IC50 for each of the following compounds.
1. CCn1cc2ncc(N[C@@H](C)c3cc(NC(=O)Cc4cc(C)c(Cl)cn4)ccc3C)nc2n1
2. Cc1cc(C(=O)Nc2cccc([C@H](C)Nc3cnc4cnn(C)c4n3)c2)ccc1C(=O)OCC(C)C

Solution:
1. < 300 nM
2. < 300 nM

###

# measured.on: Human PDGFRα, cytoplasmic domain (GST-PDGFRα) (Homo sapiens, UniProt P16234)
# test.name: Human PDGFRα biochemical inhibition assay (off-chip Mobility Shift Assay)
Provide the recorded IC50 for the entries that follow.

See these solved cases before continuing.
- entry.smiles: "Cc1cncc(C(=O)Nc2cccc([C@H](C)Nc3cnc4cn(CCN5CCOCC5)nc4n3)c2)c1"
  measurement.kind: "IC50"
  result: "300 to 1000 nM"
- entry.smiles: "Cc1ncc(C(=O)Nc2cccc([C@H](C)Nc3cnc4cnn(C)c4n3)c2)cc1F"
  measurement.kind: "IC50"
  result: "< 300 nM"
- entry.smiles: "CCn1cc2ncc(N[C@@H](C)c3cccc(NC(=O)Nc4ccc(OC(F)(F)F)nc4)c3)nc2n1"
  measurement.kind: "IC50"
  result: "< 300 nM"
- entry.smiles: "CCn1cc2ncc(N[C@@H](C)c3cc(NC(=O)c4cnc(OCC5CC5)c(C)c4)ccc3F)nc2n1"
  measurement.kind: "IC50"
  result: "< 300 nM"
- entry.smiles: "COC(=O)c1ccc(C(=O)Nc2cccc([C@H](C)Nc3cnc4cnn(C)c4n3)c2)cc1"
  measurement.kind: "IC50"
  result: "< 300 nM"
- entry.smiles: "CCn1cc2ncc(N[C@@H](C)c3cccc(NC(=O)c4ccc(OC)c(F)c4)c3)nc2n1"
  measurement.kind: "IC50"
  result: "< 300 nM"
- entry.smiles: "COc1ccc(NC(=O)c2cncc(C)c2)cc1CNc1cnc2ccccc2n1"
  measurement.kind: "IC50"
  result: "300 to 1000 nM"

Now, please, on to the next compound.
Problem: Determine its reported IC50: CC(C)c1cc(C(=O)Nc2cccc([C@H](C)Nc3cnc4cnn(C)c4n3)c2)no1
Solution: < 300 nM
